# assay-comment: In vitro percent inhibition against aggrecanase at the concentration of 1 uM
measurement-type: inhibition (%)

[[record]]
smiles_structure = "Cc1cc(COc2ccc(C3(N4CCN(C(C)C)CC4)C(=O)NC(=O)NC3=O)cc2)c2ccccc2n1"
obs_value = 0

[[record]]
smiles_structure = "Cc1cc(COc2ccc(C3(N4CCN(C)CC4)C(=O)NC(=O)NC3=O)cc2)c2ccccc2n1"
obs_value = 37

[[record]]
smiles_structure = "CC1(c2ccc(OCc3ccccc3)cc2)C(=O)NC(=O)NC1=O"
obs_value = 0

[[record]]
smiles_structure = "Cc1cc(COc2ccc(C3(N4CCN(C(=O)C(C)(C)C)CC4)C(=O)NC(=O)NC3=O)cc2)c2ccccc2n1"
obs_value = 0

[[record]]
smiles_structure = "Cc1cc(COc2ccc(C3(N4CCOCC4)C(=O)NC(=O)NC3=O)cc2)c2ccccc2n1"
obs_value = 1

